# tgt: C277S (SEQ ID NO: 424) (Thermotoga maritima, UniProt Q9WXT2, C277S)
# Construct: made in house; host or cells: E. coli
# Sequence (Q9WXT2 whole entry C277S): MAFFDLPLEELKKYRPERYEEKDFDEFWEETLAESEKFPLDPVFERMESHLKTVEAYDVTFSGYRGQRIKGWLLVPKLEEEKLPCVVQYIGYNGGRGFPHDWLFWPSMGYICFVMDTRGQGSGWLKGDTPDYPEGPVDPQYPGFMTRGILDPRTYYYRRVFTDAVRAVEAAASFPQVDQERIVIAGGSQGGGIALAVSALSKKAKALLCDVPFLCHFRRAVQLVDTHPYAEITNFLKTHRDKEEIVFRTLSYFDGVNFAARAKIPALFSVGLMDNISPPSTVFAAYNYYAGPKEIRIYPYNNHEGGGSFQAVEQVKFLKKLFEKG
# Assay type: biochemical
# condition-description: 100 mM ester, 60 mM H2O2, 40 ppm enzyme, 95 mM phosphate pH 7.2, 37° C.
Maximum Peracetic Acid (PAA) (ppm), C277S (SEQ ID NO: 424) values, listed per item
The reply should contain only the number, in ppm.

compound	measurement-units	value-reported
CC(=O)OCC(O)COC(C)=O	ppm	1013
CC(=O)O[C@@H]1O[C@H](CO)[C@@H](OC(C)=O)[C@H](OC(C)=O)[C@H]1OC(C)=O [β-D-glucopyranose,1,2,3,4-tetraacetate]	ppm	2309
CC(=O)OC[C@H]1O[C@@](COC(C)=O)(O[C@H]2O[C@H](COC(C)=O)[C@@H](OC(C)=O)[C@H](OC(C)=O)[C@H]2OC(C)=O)[C@@H](OC(C)=O)[C@@H]1OC(C)=O [Sucrose octaacetate]	ppm	215
CC(=O)OC[C@H]1O[C@@H](OC(C)=O)[C@H](OC(C)=O)[C@@H](OC(C)=O)[C@@H]1OC(C)=O [β-D-glucose pentaacetate]	ppm	2178
CC(=O)OCC(COC(C)=O)OC(C)=O	ppm	1977

In plain terms, COCC(C)OC(C)=O (stereo not shown) [Propylene glycol methyl ether acetate] has a documented Maximum Peracetic Acid (PAA) (ppm), C277S (SEQ ID NO: 424) of 173

Maximum Peracetic Acid (PAA) (ppm), C277S (SEQ ID NO: 424) measured on CO[C@@H]1OC[C@@H](OC(C)=O)[C@H](OC(C)=O)[C@H]1OC(C)=O [β-methyl xyloside triacetin] = 3856

###

Each entry below carries its reported Whiteness Index Treatment 0.
# assay-explanation: Bleaching of coffee-tea stained bovine enamel with EZ-1 and various ester substrates (Example 15)
# condition-description: before treatment; 40 ppm EZ-1, 100 mM substrate, H2O2 100 mM (TA), 360 mM (PGDA, SOC), 60 mM (GPA), pH 7.2; control 9% H2O2 pH 5.3 without enzyme
Form: value (number only, do not type unit).

Reference set (4 entries):
molecule	Whiteness Index Treatment 0
OO [Enzyme H2O2, hydrogen peroxide]	−167.6
CC(=O)OC[C@H]1O[C@H](OC(C)=O)[C@H](OC(C)=O)[C@@H](OC(C)=O)[C@@H]1OC(C)=O [α-D-glucose pentaacetate]	−225.2
CC(=O)OCC(COC(C)=O)OC(C)=O	−189.9
CC(=O)OC[C@H]1O[C@@](COC(C)=O)(O[C@H]2O[C@H](COC(C)=O)[C@@H](OC(C)=O)[C@H](OC(C)=O)[C@H]2OC(C)=O)[C@@H](OC(C)=O)[C@@H]1OC(C)=O [Sucrose octaacetate]	−172.8

Note: attention shifts to another entry.
Entry CC(=O)OCC(C)OC(C)=O (centres unmarked) [Propylene glycol diacetate] , Whiteness Index Treatment 0 reported as −181.4

###

# condition-description: 20 μM biotin-labelled peptide, 30 min 37° C.; streptavidin-HRP, QuantaBlu; three replicate enamel substrates; no peptide 494.2
Ends that are not written are not given here. * marks the point of attachment. Biotin = O=C1N[C@H]2[C@H](CS[C@H]2CCCCC(=O)*)N1
Could you label it YES if measured Avg Fluorescence 325/420 is 1000 or higher, and NO otherwise?

Examples from the recorded data:
substance	category-label
SNATMYNIQSHSHHQK (Biotin) [DenP301]	YES
TKPPRTPTANTSRPHHNFK(Biotin) [DenP308]	YES
ANSGFPIWLQKYPWSEVQQEK (Biotin) [DenP309]	YES

Prompt: Would you say GMGSEVLSQYPQAPVGK(Biotin) [DenP312] shows Avg Fluorescence 325/420 at minimum 1000?
Response: YES

Prompt: Say whether ATPSQHRYGLMQNHAPNGIEK(Biotin) [DenP311] shows Avg Fluorescence 325/420 of 1000 or more.
Response: NO

Prompt: Record HDPYTMKSALRQSTSK(Biotin) [DenP303] ; criterion: Avg Fluorescence 325/420 no lower than 1000. Met?
Response: NO

Prompt: Evaluate DTIHPNKMKSPSSPLK (Biotin) [DenP305] : Avg Fluorescence 325/420 at minimum 1000?
Response: NO

Prompt: Given the entry QAAQVHMMQHSRPTTK (Biotin) [DenP302] , answer whether its Avg Fluorescence 325/420 meets or surpasses 1000.
Response: NO

Prompt: Hi team, for DLGTFPNRTLKMAAHK(Biotin) [DenP304] , is the recorded Avg Fluorescence 325/420 at or above 1000?
Response: NO
